Tested on: Mycobacteroides abscessus
Experiment: Antimycobacterial activity against Mycobacterium abscessus FM0058 clinical isolate assessed as inhibition zone diameter at 12.5 ng after 3 days by disc diffusion method
Assay type: functional
Observation Type: diameter of the inhibition zone (DIZ) (mm)
Provide the reading as a plain figure in mm.

Prompt: # diameter of the inhibition zone (DIZ) lookup, item `CO[C@H]1/C=C/O[C@@]2(C)Oc3c(C)c(O)c4c(c3C2=O)C(=O)C(N2CCOCC2)=C(NC(=O)/C(C)=C\C=C\[C@H](C)[C@H](O)[C@@H](C)[C@@H](O)[C@@H](C)[C@H](OC(=O)NCc2cc(-c3ccccc3)no2)[C@@H]1C)C4=O`
Response: 0

Prompt: I am curious: what diameter of the inhibition zone (DIZ) value has been reported for `CO[C@H]1/C=C/O[C@@]2(C)Oc3c(C)c(O)c4c(O)c(c(/C=N/N5CCN(C)CC5)c(O)c4c3C2=O)NC(=O)/C(C)=C\C=C\[C@H](C)[C@H](O)[C@@H](C)[C@@H](O)[C@@H](C)[C@H](OC(C)=O)[C@@H]1C` ?
Response: 0

Prompt: Dear colleague, I am looking for the recorded diameter of the inhibition zone (DIZ) of the following compound: `CO[C@H]1/C=C/O[C@@]2(C)Oc3c(C)c(O)c4c(c3C2=O)C(=O)C(N2CCOCC2)=C(NC(=O)/C(C)=C\C=C\[C@H](C)[C@H](O)[C@@H](C)[C@@H](O)[C@@H](C)[C@H](OC(=O)NC2CCN(Cc3ccccc3)CC2)[C@@H]1C)C4=O`
Response: 16

Prompt: What does the record list as diameter of the inhibition zone (DIZ) for `CO[C@H]1/C=C/O[C@@]2(C)Oc3c(C)c(O)c4c(c3C2=O)C(=O)C(N2CCOCC2)=C(NC(=O)/C(C)=C\C=C\[C@H](C)[C@H](O)[C@@H](C)[C@@H](O)[C@@H](C)[C@H](OC(=O)NCc2cc(-c3ccccn3)no2)[C@@H]1C)C4=O` ?
Response: 0

###

Experiment: Antimycobacterial activity against Mycobacterium abscessus subsp. massiliense assessed as reduction in microbial growth by CLSI method
Format: functional
Details: Mycobacteroides abscessus
Would you kindly list MIC for each of these molecules?
Provide the reading as a plain figure in µg/mL.

Prompt: So what does the record say about MIC for `CO[C@H]1/C=C/O[C@@]2(C)Oc3c(C)c(O)c4c(c3C2=O)C(=O)C(N2CCOCC2)=C(NC(=O)/C(C)=C\C=C\[C@H](C)[C@H](O)[C@@H](C)[C@@H](O)[C@@H](C)[C@H](OC(=O)NCCN(C(C)C)C(C)C)[C@@H]1C)C4=O` ?
Response: 1

Prompt: Given `CO[C@H]1/C=C/O[C@@]2(C)Oc3c(C)c(O)c4c(c3C2=O)C(=O)C(N2CCOCC2)=C(NC(=O)/C(C)=C\C=C\[C@H](C)[C@H](O)[C@@H](C)[C@@H](O)[C@@H](C)[C@H](OC(=O)NCc2cc(-c3ccccc3)no2)[C@@H]1C)C4=O` , state its recorded MIC.
Response: 0.5

###

Test system: Mycobacteroides abscessus
Test: Antimycobacterial activity against Mycobacterium abscessus ATCC 19977 assessed as inhibition zone diameter at 3.125 ng after 3 days by disc diffusion method
Assay type: functional
Exercise: for every item that follows, state its recorded diameter of the inhibition zone (DIZ).
Quick note: give the figure in mm, leave out the unit.

Prompt: Returns the measured diameter of the inhibition zone (DIZ) for the input compound. Input: `CO[C@H]1/C=C/O[C@@]2(C)Oc3c(C)c(O)c4c(c3C2=O)C(=O)C(N2CCOCC2)=C(NC(=O)/C(C)=C\C=C\[C@H](C)[C@H](O)[C@@H](C)[C@@H](O)[C@@H](C)[C@H](OC(=O)NC2CCN(Cc3ccccc3)CC2)[C@@H]1C)C4=O`
Response: 0

Prompt: diameter of the inhibition zone (DIZ) for `CO[C@H]1/C=C/O[C@@]2(C)Oc3c(C)c(O)c4c(c3C2=O)C(=O)C(N2CCOCC2)=C(NC(=O)/C(C)=C\C=C\[C@H](C)[C@H](O)[C@@H](C)[C@@H](O)[C@@H](C)[C@H](OC(=O)NCc2cc(-c3ccccc3)no2)[C@@H]1C)C4=O` ?
Response: 0

Prompt: Give the measured diameter of the inhibition zone (DIZ) of `CO[C@H]1/C=C/O[C@@]2(C)Oc3c(C)c(O)c4c(c3C2=O)C(=O)C(N2CCOCC2)=C(NC(=O)/C(C)=C\C=C\[C@H](C)[C@H](O)[C@@H](C)[C@@H](O)[C@@H](C)[C@H](OC(=O)NCc2cc(-c3ccccn3)no2)[C@@H]1C)C4=O` .
Response: 0

Prompt: Quick one: diameter of the inhibition zone (DIZ) of `CO[C@H]1/C=C/O[C@@]2(C)Oc3c(C)c(O)c4c(O)c(c(/C=N/N5CCN(C)CC5)c(O)c4c3C2=O)NC(=O)/C(C)=C\C=C\[C@H](C)[C@H](O)[C@@H](C)[C@@H](O)[C@@H](C)[C@H](OC(C)=O)[C@@H]1C` ?
Response: 0
